Assay system MAPKAPK2 enzyme (HIS-MK2, Invitrogen PV4019) (Homo sapiens, UniProt P49137); read-out recorded as log10(IC50).
Structures can show the parent of a compound that is named as a salt.
Please be aware that the numbers have been log10-transformed from IC50 in nM.

[
  {
    "Molecule": "Cn1c2c(c3c1-c1cc(-c4cccnc4)ncc1CC3)C(=O)NC1(CNC1)C2 [Example 153, hydrochloride]",
    "log10(IC50)": 1.23
  },
  {
    "Molecule": "C#Cc1cc(-c2cc3c(cn2)CCc2c-3[nH]c3c2C(=O)NCC32CC2)ccc1OC [Example 120]",
    "log10(IC50)": 1.60
  },
  {
    "Molecule": "O=C1NC2(CNC2)Cc2[nH]c3c(c21)CCc1cnc(-c2cccc(Br)c2)nc1-3 [Example 285, hydrochloride]",
    "log10(IC50)": 0.85
  },
  {
    "Molecule": "Cn1c2c(c3c1C1(CNC1)C1(CC1)NC3=O)CCc1cnc(-c3cccc(F)c3)cc1-2 [Example 209, hydrochloride]",
    "log10(IC50)": 0.48
  },
  {
    "Molecule": "Cc1ccc(-c2cc3c(cn2)CCc2c-3[nH]c3c2C(=O)NC2(CC2)C32CC2)cn1 [Example 193]",
    "log10(IC50)": 1.08
  },
  {
    "Molecule": "Cc1ccc(-c2cc3c(cn2)CCc2c4c(n(C)c2-3)CC2(CNC2)NC4=O)cn1 [Example 151, hydrochloride]",
    "log10(IC50)": 1.54
  },
  {
    "Molecule": "COc1ncc(-c2cc3c(cn2)CCc2c-3[nH]c3c2C(=O)NC2(CC2)C3)s1 [Example 283]",
    "log10(IC50)": 1.99
  },
  {
    "Molecule": "COc1ccc(-c2cc3c(cn2)CCc2c-3oc3c2C(=O)NC2(CNC2)C3)cc1 [Example 41, hydrochloride]",
    "log10(IC50)": 1.32
  }
]

stdin: Item under review: CN1CCN(c2c(F)cc(-c3cc4c(cn3)CCc3c-4[nH]c4c3C(=O)NCC43CC3)cc2C#N)CC1 [Example 317] . Reported log10(IC50)?
stdout: 1.71

stdin: Moving on to Cc1cncc(-c2cc3c(cn2)CCc2c-3[nH]c3c2C(=O)NC2(CCC2)C3)c1 [Example 102]
stdout: 1.79

stdin: And then O=C1NC2CCC2c2[nH]c3c(c21)CCc1cnc(-c2cccc(F)c2)cc1-3 (single isomer, unassigned; (+)) [Example 51] , what is it?
stdout: 1.45

stdin: Please give the result for N#Cc1ccc(-c2cc3c(cn2)CCc2c-3[nH]c3c2C(=O)NC2(CC2)C3)cc1 [Example 60] too.
stdout: 1.88

* * *

Molecular target: MAPKAPK2 enzyme (HIS-MK2, Invitrogen PV4019) (Homo sapiens)
Sequence (P49137 whole entry): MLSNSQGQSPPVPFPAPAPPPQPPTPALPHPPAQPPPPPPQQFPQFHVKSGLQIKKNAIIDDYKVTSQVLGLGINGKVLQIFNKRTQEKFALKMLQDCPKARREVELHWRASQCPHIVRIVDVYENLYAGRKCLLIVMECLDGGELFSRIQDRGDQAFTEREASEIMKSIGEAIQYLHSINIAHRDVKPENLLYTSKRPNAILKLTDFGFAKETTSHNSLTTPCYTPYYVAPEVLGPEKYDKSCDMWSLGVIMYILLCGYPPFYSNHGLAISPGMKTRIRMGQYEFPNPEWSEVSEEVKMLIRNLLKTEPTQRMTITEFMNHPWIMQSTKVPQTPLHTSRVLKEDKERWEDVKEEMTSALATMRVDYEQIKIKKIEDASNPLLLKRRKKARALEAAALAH
Counter-ions that a name gives are not always drawn.
IC50 values by entry
Value expressed in nM; do not type the unit.

[
  {
    "Compound": "O=C1NC2(CC2)C2(CNC2)c2[nH]c3c(c21)CCc1cnc(-c2cccc(F)c2)nc1-3 [Example 212, hydrochloride]",
    "Assayed system": "MAPKAPK2 enzyme (HIS-MK2, Invitrogen PV4019) (Homo sapiens)",
    "Measured metric": "IC50",
    "Unit name": "nM",
    "Numeric value": 5
  },
  {
    "Compound": "CCOc1ccc(-c2ncc3c(n2)-c2c(c4c(n2C)CC2(CNC2)NC4=O)CC3)cc1 [Example 59, hydrochloride]",
    "Assayed system": "MAPKAPK2 enzyme (HIS-MK2, Invitrogen PV4019) (Homo sapiens)",
    "Measured metric": "IC50",
    "Unit name": "nM",
    "Numeric value": 13
  },
  {
    "Compound": "COc1cncc(-c2cc3c(cn2)CCc2c4c(n(C)c2-3)CC2(CNC2)NC4=O)c1 [Example 140, hydrochloride]",
    "Assayed system": "MAPKAPK2 enzyme (HIS-MK2, Invitrogen PV4019) (Homo sapiens)",
    "Measured metric": "IC50",
    "Unit name": "nM",
    "Numeric value": 12
  },
  {
    "Compound": "Cn1c2c(c3c1C1(CNC1)CNC3=O)CCc1cnc(-c3cccc(Cl)c3)cc1-2 [Example 189, hydrochloride]",
    "Assayed system": "MAPKAPK2 enzyme (HIS-MK2, Invitrogen PV4019) (Homo sapiens)",
    "Measured metric": "IC50",
    "Unit name": "nM",
    "Numeric value": 6
  },
  {
    "Compound": "Cn1c2c(c3c1-c1nc(-c4ccc(Br)cc4)ncc1CC3)C(=O)NC1(CNC1)C2 [Example 139, hydrochloride]",
    "Assayed system": "MAPKAPK2 enzyme (HIS-MK2, Invitrogen PV4019) (Homo sapiens)",
    "Measured metric": "IC50",
    "Unit name": "nM",
    "Numeric value": 18
  }
]

stdin: What IC50 value was documented for this compound, O=C1NCC2(CC2)c2[nH]c3c(c21)CCc1cnc(-c2ccc4c(c2)OCCO4)cc1-3 [Example 114] ?
stdout: 41

stdin: // same read-out, input: COc1cc(OC)cc(-c2cc3c(cn2)CCc2c4c(n(C)c2-3)CC2(CNC2)NC4=O)c1 [Example 143, hydrochloride]
stdout: 69

stdin: How about Cn1c2c(c3c1-c1cc(-c4cncc(-c5ccc(F)cc5)c4)ncc1CC3)C(=O)NC1(CNC1)C2 [Example 136, hydrochloride] ?
stdout: 23

stdin: Please answer likewise for Cn1c2c(c3c1-c1nc(-c4cccc(C#N)c4)ncc1CC3)C(=O)NC1(CNC1)C2 [Example 287, hydrochloride]
stdout: 25

stdin: Further, for CC(C)Oc1ccc(-c2cc3c(cn2)CCc2c4c(n(C)c2-3)C2(CNC2)CNC4=O)cn1 [Example 184, hydrochloride] ?
stdout: 9

stdin: Item: O=C(NCc1ccccc1)c1cccc(-c2cc3c(cn2)CCc2c-3[nH]c3c2C(=O)NCC32CN(CC3CC3)C2)c1 [Example 261]
stdout: 11

stdin: Another: CN(C)c1ccc(-c2cc3c(cn2)CCc2c-3[nH]c3c2C(=O)NC2(CC2)C3)cn1 [Example 68]
stdout: 49

Origin of values: patent US7838674B2
